Target: HLA-A*02:01 (Homo sapiens, UniProt P04439, D140Y/D185E/D98H/E176V/E277Q/G131W/G231S/I119V/I121R/I166T/I218V/L300P/L318F/N151K/N90K/P208A/P217A/Q86G/Q94H/R138H/R169H/T345S)
Assay: MHC binding assay (UV-ligand exchange, ELISA of stabilized MHC complexes)
Details: MHC class I binding score; binding to HLA-A*02:01 ranged by peptide exchange yield (UV-ligand exchange, ELISA)
observation_type: Peptide exchange

| substance | Peptide exchange |
| --- | --- |
| 565 (ALQETPTSV; listed as Homo sapiens) [compound 565] | ″++″ (≥20% = ++) |
| 235 (YLNDLHEVLL; listed as Homo sapiens) [compound 235] | ″++++″ (≥75% = ++++) |
| 327 (GLAPFTEGISFV; listed as Homo sapiens) [compound 327] | ″+++″ (≥50% = +++) |
| 505 (SLAPGDVVRQV; listed as Homo sapiens) [compound 505] | ″++″ (≥20% = ++) |
| 115 (AIAGAGILYGV; listed as Homo sapiens) [compound 115] | ″++″ (≥20% = ++) |
| 321 (GLFEDVTQPGILL; listed as Homo sapiens) [compound 321] | ″++++″ (≥75% = ++++) |
| 237 (ALLEASGTLLL; listed as Homo sapiens) [compound 237] | ″++++″ (≥75% = ++++) |
| 141 (YLDFSNNRL; listed as Homo sapiens) [compound 141] | ″++″ (≥20% = ++) |

Task: Peptide exchange lookup needed for 247 (VLLPNDLLEKV; listed as Homo sapiens) [compound 247] , thanks.
Result: ″+++″ (≥50% = +++)

Task: What value of Peptide exchange has been recorded for this entry: 97 (SLINGSFLV; listed as Homo sapiens) [compound 97]
Result: ″+++″ (≥50% = +++)

Task: Which value of Peptide exchange has been reported for 333 (FLPDANSSV; listed as Homo sapiens) [compound 333] in the records?
Result: ″++″ (≥20% = ++)

Task: Data request, read-out Peptide exchange, for 499 (KIFDIDEAEEGV; listed as Homo sapiens) [compound 499]
Result: ″++″ (≥20% = ++)

Task: Quick one: Peptide exchange of 208 (KISPVTFSV; listed as Homo sapiens) [compound 208] ?
Result: ″+++″ (≥50% = +++)

Task: Looking for the measured Peptide exchange of 377 (FLLDSSASV; listed as Homo sapiens) [compound 377] , can you help?
Result: ″++″ (≥20% = ++)

Task: Look up Peptide exchange for this substance: 350 (ALLDVTHSELTV; listed as Homo sapiens) [compound 350]
Result: ″+++″ (≥50% = +++)

Task: # input substance: 245 (SMIDDLLGV; listed as Homo sapiens) [compound 245] ; wanted: its Peptide exchange
Result: ″+++″ (≥50% = +++)

Task: Recorded Peptide exchange for 343 (SLLEVNEESTV; listed as Homo sapiens) [compound 343] , please?
Result: ″+++″ (≥50% = +++)

Task: Request the reported Peptide exchange associated with 167 (KVLEVTEEFGV; listed as Homo sapiens) [compound 167]
Result: ″+++″ (≥50% = +++)

Task: Recorded Peptide exchange for 257 (SIFSAFLSV; listed as Homo sapiens) [compound 257] , please?
Result: ″+++″ (≥50% = +++)

Task: Any idea what Peptide exchange was measured for 451 (LLLLDTVTMQV; listed as Homo sapiens) [compound 451] ?
Result: ″++″ (≥20% = ++)

Task: Any idea what its Peptide exchange is? The substance is 458 (SLIDKLYNI; listed as Homo sapiens) [compound 458]
Result: ″++″ (≥20% = ++)

Task: Request the reported Peptide exchange associated with 23 (VLLDDIFAQL; listed as Homo sapiens) [compound 23]
Result: ″+++″ (≥50% = +++)

Task: Would you mind telling me what Peptide exchange value was observed for 49 (YLPAVFEEV; listed as Homo sapiens) [compound 49] ?
Result: ″+++″ (≥50% = +++)

Task: Quick check: Peptide exchange of 218 (SALEELVNV; listed as Homo sapiens) [compound 218] ?
Result: ″++″ (≥20% = ++)

Task: Fill in the blank: the reported Peptide exchange of 127 (KIGDEPPKV; listed as Homo sapiens) [compound 127] is ____.
Result: ″++″ (≥20% = ++)

Task: Any idea what Peptide exchange was measured for 314 (ALIAEGIALV; listed as Homo sapiens) [compound 314] ?
Result: ″+++″ (≥50% = +++)

Task: Need Peptide exchange, item 6 (VLVSDGVHSV; listed as Homo sapiens) [compound 6]
Result: ″+++″ (≥50% = +++)

Task: Which Peptide exchange value belongs to 301 (FLVEDLVDSL; listed as Homo sapiens) [compound 301] ?
Result: ″+++″ (≥50% = +++)

Task: Fill blank: measured Peptide exchange of the substance 75 (GLLEVMVNL; listed as Homo sapiens) [compound 75] is ____.
Result: ″+++″ (≥50% = +++)
